Origin of measurements: patent US7981912B2

# Target Of Assay: human CRTH2 (Homo sapiens, UniProt Q9Y5Y4)
# Sequence (Q9Y5Y4 whole entry): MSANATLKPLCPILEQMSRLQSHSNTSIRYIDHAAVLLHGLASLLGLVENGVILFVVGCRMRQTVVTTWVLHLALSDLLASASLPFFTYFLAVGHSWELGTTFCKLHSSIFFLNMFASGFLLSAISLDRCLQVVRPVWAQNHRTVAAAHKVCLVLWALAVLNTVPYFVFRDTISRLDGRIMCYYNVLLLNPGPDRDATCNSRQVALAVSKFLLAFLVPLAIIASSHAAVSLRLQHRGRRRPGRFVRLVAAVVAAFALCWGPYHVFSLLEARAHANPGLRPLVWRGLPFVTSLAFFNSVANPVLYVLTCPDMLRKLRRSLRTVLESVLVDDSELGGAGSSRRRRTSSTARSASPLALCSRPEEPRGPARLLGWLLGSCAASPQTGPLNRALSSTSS
# Assay Text: CRTH2 fluorescent imaging assay (intracellular calcium, antagonist mode)
# Condition Set: HT1080-hCRTH2 cells; block of calcium increase caused by 500 nM PGD2
Outcome Measure: IC50 (nM)
Numeric only. Scale: nM

Study these solved cases before continuing.
INSERT INTO measurements (molecule, readout_unit, assay_result) VALUES
  ('Cc1onc(-c2ccccc2)c1CN1C(c2c(C)n(CC(=O)O)c3ccc(Cl)cc23)c2ccccc2S1(=O)=O (stereo not shown)', 'nM', 170),
  ('Cc1noc(C)c1CN1C(c2c(C)n(CC(=O)O)c3ccccc23)c2ccc(F)cc2S1(=O)=O (stereo not shown)', 'nM', 22),
  ('Cc1c(-c2nn(Cc3ccccc3)c(=O)c3ccccc23)c2cc(Cl)ccc2n1CC(=O)O', 'nM', 19);

Kindly consider the entry below.
stdin: Notebook: pull reported IC50 for human CRTH2 (Homo sapiens, UniProt Q9Y5Y4), entry Cc1c(-c2nn(Cc3ccc(F)cc3)c(=O)c3ccccc23)c2cc(Cl)ccc2n1CC(=O)O
stdout: 60
